The reported measurements were obtained from patent US9453051B2.

Tested on: NFAT
EXPERIMENT: Cellular NFAT-reporter-gene assay (GloResponse NFAT-RE-luc2P HEK293)
Assay type: cell-based
CONDITION NOTES: Homo sapiens, HEK293, 16 h, read-out: NFAT-reporter-gene assay IC50
Listing of entries alongside the reported IC50.

Some solved entries appear below for comparison.
CC[C@@H]1NC(=O)[C@H]([C@H](O)[C@H](C)Cc2nc3cc(F)cc(C(=O)O)c3[nH]2)N(C)C(=O)[C@H](C(C)C)N(C)C(=O)[C@H](CC(C)C)N(C)C(=O)[C@H](CC(C)C)N(C)C(=O)[C@@H](C)NC(=O)[C@H](C)NC(=O)[C@H](CC(C)C)N(C)C(=O)[C@H](C(C)C)NC(=O)[C@H](CC(C)C)N(C)C(=O)CN(C)C1=O [Compound 21] = 5.3 µM
CC[C@@H]1NC(=O)[C@H]([C@H](O)[C@H](C)Cc2nc3cc(C(N)=O)ccc3[nH]2)N(C)C(=O)[C@H](C(C)C)N(C)C(=O)[C@H](CC(C)C)N(C)C(=O)[C@H](CC(C)C)N(C)C(=O)[C@@H](C)NC(=O)[C@H](C)NC(=O)[C@H](CC(C)C)N(C)C(=O)[C@H](C(C)C)NC(=O)[C@H](CC(C)C)N(C)C(=O)CN(C)C1=O [Compound 23] = > 10 µM
CC[C@@H]1NC(=O)[C@H]([C@H](O)[C@H](C)Cc2nc3ccc(C(=O)O)cc3[nH]2)N(C)C(=O)[C@H](C(C)C)N(C)C(=O)[C@H](CC(C)C)N(C)C(=O)[C@H](CC(C)C)N(C)C(=O)[C@@H](C)NC(=O)[C@H](C)NC(=O)[C@H](CC(C)C)N(C)C(=O)[C@H](C(C)C)NC(=O)[C@H](CC(C)C)N(C)C(=O)CN(C)C1=O [Compound 5] = > 10 µM
CC[C@@H]1NC(=O)[C@H]([C@H](O)[C@H](C)Cc2nc3cccc(C(=O)O)c3[nH]2)N(C)C(=O)[C@H](C(C)C)N(C)C(=O)[C@H](CC(C)C)N(C)C(=O)[C@H](CC(C)C)N(C)C(=O)[C@@H](C)NC(=O)[C@H](C)NC(=O)[C@H](CC(C)C)N(C)C(=O)[C@H](C(C)C)NC(=O)[C@H](CC(C)C)N(C)C(=O)CN(C)C1=O [Compound 28] = > 10 µM

Request: IC50 of CC[C@@H]1NC(=O)[C@H]([C@H](O)[C@H](C)Cc2nc3cc(C(=N)N)ccc3[nH]2)N(C)C(=O)[C@H](C(C)C)N(C)C(=O)[C@H](CC(C)C)N(C)C(=O)[C@H](CC(C)C)N(C)C(=O)[C@@H](C)NC(=O)[C@H](C)NC(=O)[C@H](CC(C)C)N(C)C(=O)[C@H](C(C)C)NC(=O)[C@H](CC(C)C)N(C)C(=O)CN(C)C1=O [Compound 35] on NFAT?
Result: > 10 µM

Request: IC50 of CC[C@@H]1NC(=O)[C@H]([C@H](O)[C@H](C)Cc2nc3cc(C(=O)O)c(C(=O)O)cc3[nH]2)N(C)C(=O)[C@H](C(C)C)N(C)C(=O)[C@H](CC(C)C)N(C)C(=O)[C@H](CC(C)C)N(C)C(=O)[C@@H](C)NC(=O)[C@H](C)NC(=O)[C@H](CC(C)C)N(C)C(=O)[C@H](C(C)C)NC(=O)[C@H](CC(C)C)N(C)C(=O)CN(C)C1=O [Compound 31] on NFAT?
Result: > 10 µM

---

ASSAY TARGET: recombinant human wild type Cyp18 (Cyp18 wt) (Homo sapiens, UniProt P62937)
EXPERIMENT: biochemical
MEASURED ENDPOINT: IC50 (nM)
# value in nM; strip the unit string

CC[C@@H]1NC(=O)[C@H]([C@H](O)[C@H](C)Cc2nc3cc(C(=O)N[C@@H](CCC(=O)O)C(=O)N[C@@H](CCC(=O)O)C(N)=O)ccc3[nH]2)N(C)C(=O)[C@H](C(C)C)N(C)C(=O)[C@H](CC(C)C)N(C)C(=O)[C@H](CC(C)C)N(C)C(=O)[C@@H](C)NC(=O)[C@H](C)NC(=O)[C@H](CC(C)C)N(C)C(=O)[C@H](C(C)C)NC(=O)[C@H](CC(C)C)N(C)C(=O)CN(C)C1=O = 5.1

Below: the item to evaluate.
Request: Report IC50 for CC[C@@H]1NC(=O)[C@H]([C@H](O)[C@H](C)Cc2nc3cc(S(N)(=O)=O)ccc3[nH]2)N(C)C(=O)[C@H](C(C)C)N(C)C(=O)[C@H](CC(C)C)N(C)C(=O)[C@H](CC(C)C)N(C)C(=O)[C@@H](C)NC(=O)[C@H](C)NC(=O)[C@H](CC(C)C)N(C)C(=O)[C@H](C(C)C)NC(=O)[C@H](CC(C)C)N(C)C(=O)CN(C)C1=O please.
Result: 16.4

---

ASSAY TARGET: calcineurin (Homo sapiens, UniProt P62937+P63098+Q08209)
EXPERIMENT: Inhibition of the phosphatase activity of calcineurin (scintillation-proximity-assay, in presence of Cyp18);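 note: calcineurin dephosphorylation of a ³³P-labelled RII phosphopeptide, captured on streptavidin-coated wells and read by scintillation counting, with uninhibited enzyme activity taken as 100%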
pIC50: −log10 of the molar value.
MEASURED ENDPOINT: pIC50

Some solved entries appear below for comparison.
CC[C@@H]1NC(=O)[C@H]([C@H](O)[C@H](C)Cc2nc3cc(C(=O)NCCOCCOCCNC(=O)[C@@H]4C[C@H](C(=O)O)C[C@H](C(=O)O)C4)ccc3[nH]2)N(C)C(=O)[C@H](C(C)C)N(C)C(=O)[C@H](CC(C)C)N(C)C(=O)[C@H](CC(C)C)N(C)C(=O)[C@@H](C)NC(=O)[C@H](C)NC(=O)[C@H](CC(C)C)N(C)C(=O)[C@H](C(C)C)NC(=O)[C@H](CC(C)C)N(C)C(=O)CN(C)C1=O [Compound 67] = < 5.00
CC[C@@H]1NC(=O)[C@H]([C@H](O)[C@H](C)Cc2nc3cc(C(=O)Oc4ccccc4C(=O)O)ccc3[nH]2)N(C)C(=O)[C@H](C(C)C)N(C)C(=O)[C@H](CC(C)C)N(C)C(=O)[C@H](CC(C)C)N(C)C(=O)[C@@H](C)NC(=O)[C@H](C)NC(=O)[C@H](CC(C)C)N(C)C(=O)[C@H](C(C)C)NC(=O)[C@H](CC(C)C)N(C)C(=O)CN(C)C1=O [Compound 65] = < 5.00

Below: the item to evaluate.
Request: Report pIC50 for CC[C@@H]1NC(=O)[C@H]([C@H](O)[C@H](C)Cc2nc3ccc(C(=O)O)cc3[nH]2)N(C)C(=O)[C@H](C(C)C)N(C)C(=O)[C@H](CC(C)C)N(C)C(=O)[C@H](CC(C)C)N(C)C(=O)[C@@H](C)NC(=O)[C@H](C)NC(=O)[C@H](CC(C)C)N(C)C(=O)[C@H](C(C)C)NC(=O)[C@H](CC(C)C)N(C)C(=O)CN(C)C1=O [Compound 5] please.
Result: < 5.00

---

EXPERIMENT: in vitro
CONDITION NOTES: human, Caco-2, pH 7.4
MEASURED ENDPOINT: Papp A→B at 2 h, 5 μM

CC[C@@H]1NC(=O)[C@H]([C@H](O)[C@H](C)Cc2nc3cc(C(=O)O)ccc3n2C)N(C)C(=O)[C@H](C(C)C)N(C)C(=O)[C@H](CC(C)C)N(C)C(=O)[C@H](CC(C)C)N(C)C(=O)[C@@H](C)NC(=O)[C@H](C)NC(=O)[C@H](CC(C)C)N(C)C(=O)[C@H](C(C)C)NC(=O)[C@H](CC(C)C)N(C)C(=O)CN(C)C1=O [Compound 36] = 0.3 ×10⁻⁶ cm/s
CC[C@@H]1NC(=O)[C@H]([C@H](O)[C@H](C)Cc2nc3cc(-c4nnn[nH]4)ccc3[nH]2)N(C)C(=O)[C@H](C(C)C)N(C)C(=O)[C@H](CC(C)C)N(C)C(=O)[C@H](CC(C)C)N(C)C(=O)[C@@H](C)NC(=O)[C@H](C)NC(=O)[C@H](CC(C)C)N(C)C(=O)[C@H](C(C)C)NC(=O)[C@H](CC(C)C)N(C)C(=O)CN(C)C1=O [Compound 33] = < 0.15 ×10⁻⁶ cm/s

Below: the item to evaluate.
Request: Report Papp A→B at 2 h, 5 μM for CC[C@@H]1NC(=O)[C@H]([C@H](O)[C@H](C)Cc2nc3cc(C(=O)O)c(C(=O)O)cc3[nH]2)N(C)C(=O)[C@H](C(C)C)N(C)C(=O)[C@H](CC(C)C)N(C)C(=O)[C@H](CC(C)C)N(C)C(=O)[C@@H](C)NC(=O)[C@H](C)NC(=O)[C@H](CC(C)C)N(C)C(=O)[C@H](C(C)C)NC(=O)[C@H](CC(C)C)N(C)C(=O)CN(C)C1=O [Compound 31] please.
Result: < 0.15 ×10⁻⁶ cm/s
